Reference source for all entries: patent US8071768B2

Target: TrkB (Homo sapiens, UniProt Q16620)
Construct: purchased Upstate 14-507M
Sequence (Q16620 32-822): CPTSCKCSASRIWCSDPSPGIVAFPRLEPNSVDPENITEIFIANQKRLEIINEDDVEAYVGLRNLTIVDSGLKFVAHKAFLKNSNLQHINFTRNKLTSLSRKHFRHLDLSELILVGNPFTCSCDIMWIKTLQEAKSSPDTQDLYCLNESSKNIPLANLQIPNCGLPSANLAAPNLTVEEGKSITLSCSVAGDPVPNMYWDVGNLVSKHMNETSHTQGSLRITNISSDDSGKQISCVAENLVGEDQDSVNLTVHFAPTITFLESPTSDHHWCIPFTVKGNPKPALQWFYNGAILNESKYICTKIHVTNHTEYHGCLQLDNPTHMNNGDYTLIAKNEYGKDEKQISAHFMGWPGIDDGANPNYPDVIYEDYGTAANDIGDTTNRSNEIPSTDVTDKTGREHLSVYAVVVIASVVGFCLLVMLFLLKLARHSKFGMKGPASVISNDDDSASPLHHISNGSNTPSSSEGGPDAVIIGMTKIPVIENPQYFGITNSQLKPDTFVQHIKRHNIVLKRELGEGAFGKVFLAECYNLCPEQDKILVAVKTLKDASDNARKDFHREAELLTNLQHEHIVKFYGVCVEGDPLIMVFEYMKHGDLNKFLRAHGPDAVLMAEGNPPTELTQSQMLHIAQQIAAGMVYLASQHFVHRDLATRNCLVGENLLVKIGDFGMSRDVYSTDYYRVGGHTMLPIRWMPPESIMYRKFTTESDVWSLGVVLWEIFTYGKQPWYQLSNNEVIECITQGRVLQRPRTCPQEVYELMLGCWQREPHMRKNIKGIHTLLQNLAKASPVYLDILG
Test: Trk B Fluorescence Polarization Kinase Assay
Assay type: biochemical
Conditions: uncertainty ±10%
What pIC50 was measured for each of the following?
Scale for pIC50: -log10 of concentration given in mol/L; no unit attached.

Bench note: what pIC50 did COc1cc2ncnc(C3CCN(C(=O)Nc4ccc(C(F)(F)F)cc4)CC3)c2cc1OC [Compound 46] show?
4.74

Could you tell me which pIC50 is on file for CN1CCN(c2ccc3c(C4CCN(C(=O)Nc5ccc(N6CCCC6)cc5)CC4)ncnc3c2)CC1 [Compound 159] ?
5.10

---

readout.kind: pIC50
// returns pIC50 (minus log10 of molar concentration), number only

Lookup: pIC50 / TrkB (Homo sapiens, UniProt Q16620) / COc1cc2ncnc(C3CCN(C(=O)Nc4ccc(OC5CCCC5)nc4)CC3)c2cc1OC [Compound 69]
6.82

// map CS(=O)(=O)NCCCOc1ccc2c(C3CCN(C(=O)Nc4ccc(N5CCOCC5)nc4)CC3)ncnc2c1 [Compound 87] to recorded pIC50 (system: TrkB (Homo sapiens, UniProt Q16620))
5.14

Lookup: pIC50 / TrkB (Homo sapiens, UniProt Q16620) / CN1CCC(COc2ccc3c(C4CCN(C(=O)Nc5ccc(OC6CCC6)nc5)CC4)ncnc3c2)CC1 [Compound 107]
6.70
